Settings: buffer; pH 7.4; 200.0 µM
Output schema: class label derived from solubility kinetic. Mapping: range 1 = under 8 µg/mL, range 2 = from 8 µg/mL up to 30 µg/mL, range 3 = 30 µg/mL and over

Please review the following examples before continuing.
- molecule: "C=CCNC(=O)c1ccc(S(=O)(=O)CC)c(Cl)c1Cl"
  class: "range 3"
- molecule: "COc1ccc(Nc2nc(N)c([N+](=O)[O-])c(NCCO)n2)cc1"
  class: "range 3"
- molecule: "O=C(NCCN1CCOCC1)c1cc(-c2ccccc2Cl)on1"
  class: "range 3"
- molecule: "COc1ccccc1NC(=O)NC1CCCCCCC1"
  class: "range 1"
- molecule: "Cc1ccc(CNC(=O)C2CCCC2)cc1"
  class: "range 2"
- molecule: "COc1ccc(NC(=O)c2cc3cc(C)ccc3n2C)c(OC)c1"
  class: "range 1"
- molecule: "O=C(N[C@@H](Cc1ccccc1)C(=O)N1CCN(S(=O)(=O)c2ccccc2F)CC1)c1ccco1"
  class: "range 2"
- molecule: "Cc1csc2c(NC3CCN(Cc4ccccc4)CC3)ncnc12"
  class: "range 3"

Would you mind sorting CC(C)NC(=O)CCc1nc2cccnc2n1-c1ccccc1 into the appropriate category?
range 3

Would you mind sorting COCc1cc(C)nc(SCC(=O)Oc2ccc(Cl)cc2)c1C#N into the appropriate category?
range 2

Would you mind sorting CC(=O)c1cc(C#N)c(SCC(=O)Nc2nccs2)nc1C into the appropriate category?
range 1

Would you mind sorting O=C(c1ccco1)N1CCN(C(=O)c2ccccc2OCc2ccccc2)CC1 into the appropriate category?
range 3

Would you mind sorting Cn1ccnc1C(O)(c1ccccc1)c1nccn1C into the appropriate category?
range 3

Would you mind sorting O=S(=O)(NC1CCCCC1)c1cccs1 into the appropriate category?
range 2

Would you mind sorting O=C(O)/C=C/C(=O)Nc1ccc(OC(F)(F)F)cc1Br into the appropriate category?
range 3

Would you mind sorting CC1CCCC(C)N1C(=O)Cn1cnc2cc([N+](=O)[O-])ccc2c1=O (configuration not stated) into the appropriate category?
range 3

Would you mind sorting Cc1cc[n+](CC(=O)Nc2cccc(C)c2)cc1.[Cl-] into the appropriate category?
range 3

----------
Conditions: buffer; pH 7.4; 200.0 µM
compounds and their reported solubility kinetic

Example cases with answers are listed next.
- compound: "COc1ccc(CN2CCN(CC3CC3)CC2CCO)cc1C (stereo unspecified)"
  measured: "> 47.8 µg/mL"
- compound: "CN/C=C(/Cl)P(=O)(OC(C)C)OC(C)C"
  measured: "> 38.4 µg/mL"
- compound: "CC(C(c1cccs1)c1c(N)n(C)c(=O)n(C)c1=O)[N+](=O)[O-] (stereo unspecified)"
  measured: "> 48.7 µg/mL"
- compound: "O=[N+]([O-])c1ccc(S(=O)(=O)c2ccccc2)nc1"
  measured: "> 39.6 µg/mL"
- compound: "Cn1c(C(=O)NCCc2ccccc2)cc(=O)n(C)c1=O"
  measured: "> 43.1 µg/mL"

Field request: solubility kinetic | item: O=C(CSc1nc2ccccc2c(=O)n1CCCN1CCOCC1)Nc1ccccc1OC(F)F
> 75.7 µg/mL

Field request: solubility kinetic | item: C=CC[N+]1(C)C2CCC1CC(O)C2.[Br-] (stereo unspecified)
> 39.3 µg/mL

Field request: solubility kinetic | item: Cc1ccc(NC(=O)N2CCC(NC(=O)c3ccco3)CC2)cc1
> 49.1 µg/mL

Field request: solubility kinetic | item: CCCCn1c2c(c(=N)c3ccccc31)CCC2.I
> 55.2 µg/mL

Field request: solubility kinetic | item: CN(C)/C=C1\C(=O)N(c2ccc(F)cc2F)C(c2cccnc2)S1(=O)=O (stereo unspecified)
> 56.9 µg/mL
